# Procedure details: Clearance in Wistar rat at 15 mg/kg, iv measured after 24 hrs by HPLC analysis
# Assay type: ADME, organism-based
# Assay conditions: in vivo
Measured property: clearance (mL/min/kg)
Please state the figure in mL/min/kg; there is no need to write the unit.

clearance for `C[C@@H](O)CCCCn1c(=O)c2c(ncn2C)n(C)c1=O` is 17

* * *

# System: Rattus norvegicus
# Procedure details: Protection against STZ-induced renal toxicity in Wistar rat assessed as reduction in plasma uric acid level at 30 mg/kg, ip administered once daily for 5 weeks measured after 3 to 5 weeks
# Format: functional, organism-based
# Assay conditions: time 3-5 weeks
Active and inactive are the calls of the source. The rule behind the calls is not given here.
Measured property: Activity

CCCCCCCCC=CCCCCCCCC(=O)OC(C)CCCCn1c(=O)c2c(ncn2C)n(C)c1=O (centres undefined)	Active
CC(CCCCn1c(=O)c2c(ncn2C)n(C)c1=O)OC(=O)CCCCC1CCSS1 (centres undefined)	Active
CCCCCCCCCCCCCCCC(=O)OC(C)CCCCn1c(=O)c2c(ncn2C)n(C)c1=O (centres undefined)	Active
CCCCC/C=C/CC=CCCCCCCCC(=O)OC(C)CCCCn1c(=O)c2c(ncn2C)n(C)c1=O (centres undefined)	Active

Values from ChEMBL document CHEMBL5036346
